experimental.target: purified recombinant 6HIS-Tev-LRRK2 (1326-2527) (Homo sapiens)
Construct: A LRRK2 cDNA encoding residues 1326-2527 was received from Dundee University; made in house; host or cells: Spodoptera frugiperda (Sf9) insect cells, baculovirus (pFB-HTb)
Sequence (Q5S007 1326-2527): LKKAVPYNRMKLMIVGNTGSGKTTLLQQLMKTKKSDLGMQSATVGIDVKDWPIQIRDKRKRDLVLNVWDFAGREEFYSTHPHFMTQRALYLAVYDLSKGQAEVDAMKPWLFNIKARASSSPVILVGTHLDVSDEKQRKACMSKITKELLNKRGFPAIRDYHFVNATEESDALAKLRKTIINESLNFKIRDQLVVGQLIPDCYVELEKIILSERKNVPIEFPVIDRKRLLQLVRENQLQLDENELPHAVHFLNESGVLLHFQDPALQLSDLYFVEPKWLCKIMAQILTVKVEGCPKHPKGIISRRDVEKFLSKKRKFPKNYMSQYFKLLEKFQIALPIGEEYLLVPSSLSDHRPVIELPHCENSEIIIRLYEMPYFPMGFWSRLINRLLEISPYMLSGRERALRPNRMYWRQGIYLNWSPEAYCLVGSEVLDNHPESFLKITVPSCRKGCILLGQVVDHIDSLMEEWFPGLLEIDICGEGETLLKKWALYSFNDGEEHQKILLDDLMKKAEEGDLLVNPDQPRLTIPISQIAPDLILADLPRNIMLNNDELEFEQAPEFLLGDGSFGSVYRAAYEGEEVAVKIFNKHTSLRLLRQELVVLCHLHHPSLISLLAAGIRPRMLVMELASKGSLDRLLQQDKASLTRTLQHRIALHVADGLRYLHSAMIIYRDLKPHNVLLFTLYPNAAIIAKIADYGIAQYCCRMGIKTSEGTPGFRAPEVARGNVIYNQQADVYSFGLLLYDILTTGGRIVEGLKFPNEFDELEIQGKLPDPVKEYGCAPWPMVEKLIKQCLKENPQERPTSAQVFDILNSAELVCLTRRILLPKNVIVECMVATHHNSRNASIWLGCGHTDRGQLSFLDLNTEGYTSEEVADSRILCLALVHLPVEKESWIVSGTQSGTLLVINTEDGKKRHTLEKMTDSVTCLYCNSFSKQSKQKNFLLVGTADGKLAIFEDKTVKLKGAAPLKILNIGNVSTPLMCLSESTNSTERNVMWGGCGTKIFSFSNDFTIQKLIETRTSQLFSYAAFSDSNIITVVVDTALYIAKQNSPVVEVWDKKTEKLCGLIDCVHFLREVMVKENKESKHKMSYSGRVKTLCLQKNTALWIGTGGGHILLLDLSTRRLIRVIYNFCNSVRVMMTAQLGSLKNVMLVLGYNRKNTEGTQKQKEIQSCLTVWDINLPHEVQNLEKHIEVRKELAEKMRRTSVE
assay.details: Recombinant LRRK2 enzyme peptide substrate TR-FRET assay
Format: biochemical
test.parameters: 60 nM LRRK2 (1326-2527), 1 uM Biotin-longer LRRKtide, 10 uM ATP; read-out: recombinant LRRK2 enzyme peptide substrate TR-FRET assay (pIC50) (converted)
Recorded IC50 for the following molecules

Please review the entries below; each comes with its answer.
CCOc1nc(Nc2ccc(C(=O)N3CCN(C)CC3)cc2OCC2CC2)nc2[nH]ccc12: ≤ 10 nM
CCOc1nc(Nc2ccc(C(=O)N3[C@H](C#N)C[C@@H]4C[C@@H]43)cc2OC)nc2[nH]ccc12: ≤ 10 nM
CCOc1cc(C(=O)N2CCN(C)CC2)ccc1Nc1nc(OCC)c2cc[nH]c2n1: ≤ 10 nM
CCOc1nc(Nc2ccc(C(=O)N3CCN(C)CC3)cc2OC(F)F)nc2[nH]ccc12: ≤ 10 nM
CCOc1nc(Nc2ccc(C(=O)N3CCN(C)CC3)cc2OC)nc2[nH]ccc12: 7.94 nM
CCOc1nc(Nc2ccc(C(=O)N3CCN(C)[C@@H](C)C3)cc2OC)nc2[nH]ccc12: ≤ 10 nM
CCOc1nc(Nc2ccc(C(=O)N3CC4CC4(CO)C3)cc2OC)nc2[nH]ccc12 (single isomer, unassigned): ≤ 10 nM
CCOc1nc(Nc2ccc(C(=O)N3CCOC[C@@H]3C)cc2OC)nc2[nH]ccc12: ≤ 10 nM
CCOc1nc(Nc2cc(F)c(C(=O)N3CCOCC3)cc2OC)nc2[nH]ccc12 [Example E2]: 7.94 nM
CCOc1nc(Nc2ccc(C(=O)N3CCC4(CC3)CN(C)C4)cc2OC)nc2[nH]ccc12: ≤ 10 nM

Note: attention shifts to another entry.
Q: Kindly state the measured IC50 obtained for CCOc1nc(Nc2ccc(C(=O)N3CCOCC3)cc2)nc2[nH]ccc12 with purified recombinant 6HIS-Tev-LRRK2 (1326-2527) (Homo sapiens).
Ans: ≤ 10 nM

====

experimental.target: recombinant full length LRRK2 over-expressed in SH-SY5Y cells (Homo sapiens)
Construct: A BacMam virus expressing full length recombinant LRRK2 was purchased from Invitrogen; host or cells: SH-SY5Y human neuroblastoma cells transduced with BacMam LRRK2 virus
Sequence (Q5S007 whole entry): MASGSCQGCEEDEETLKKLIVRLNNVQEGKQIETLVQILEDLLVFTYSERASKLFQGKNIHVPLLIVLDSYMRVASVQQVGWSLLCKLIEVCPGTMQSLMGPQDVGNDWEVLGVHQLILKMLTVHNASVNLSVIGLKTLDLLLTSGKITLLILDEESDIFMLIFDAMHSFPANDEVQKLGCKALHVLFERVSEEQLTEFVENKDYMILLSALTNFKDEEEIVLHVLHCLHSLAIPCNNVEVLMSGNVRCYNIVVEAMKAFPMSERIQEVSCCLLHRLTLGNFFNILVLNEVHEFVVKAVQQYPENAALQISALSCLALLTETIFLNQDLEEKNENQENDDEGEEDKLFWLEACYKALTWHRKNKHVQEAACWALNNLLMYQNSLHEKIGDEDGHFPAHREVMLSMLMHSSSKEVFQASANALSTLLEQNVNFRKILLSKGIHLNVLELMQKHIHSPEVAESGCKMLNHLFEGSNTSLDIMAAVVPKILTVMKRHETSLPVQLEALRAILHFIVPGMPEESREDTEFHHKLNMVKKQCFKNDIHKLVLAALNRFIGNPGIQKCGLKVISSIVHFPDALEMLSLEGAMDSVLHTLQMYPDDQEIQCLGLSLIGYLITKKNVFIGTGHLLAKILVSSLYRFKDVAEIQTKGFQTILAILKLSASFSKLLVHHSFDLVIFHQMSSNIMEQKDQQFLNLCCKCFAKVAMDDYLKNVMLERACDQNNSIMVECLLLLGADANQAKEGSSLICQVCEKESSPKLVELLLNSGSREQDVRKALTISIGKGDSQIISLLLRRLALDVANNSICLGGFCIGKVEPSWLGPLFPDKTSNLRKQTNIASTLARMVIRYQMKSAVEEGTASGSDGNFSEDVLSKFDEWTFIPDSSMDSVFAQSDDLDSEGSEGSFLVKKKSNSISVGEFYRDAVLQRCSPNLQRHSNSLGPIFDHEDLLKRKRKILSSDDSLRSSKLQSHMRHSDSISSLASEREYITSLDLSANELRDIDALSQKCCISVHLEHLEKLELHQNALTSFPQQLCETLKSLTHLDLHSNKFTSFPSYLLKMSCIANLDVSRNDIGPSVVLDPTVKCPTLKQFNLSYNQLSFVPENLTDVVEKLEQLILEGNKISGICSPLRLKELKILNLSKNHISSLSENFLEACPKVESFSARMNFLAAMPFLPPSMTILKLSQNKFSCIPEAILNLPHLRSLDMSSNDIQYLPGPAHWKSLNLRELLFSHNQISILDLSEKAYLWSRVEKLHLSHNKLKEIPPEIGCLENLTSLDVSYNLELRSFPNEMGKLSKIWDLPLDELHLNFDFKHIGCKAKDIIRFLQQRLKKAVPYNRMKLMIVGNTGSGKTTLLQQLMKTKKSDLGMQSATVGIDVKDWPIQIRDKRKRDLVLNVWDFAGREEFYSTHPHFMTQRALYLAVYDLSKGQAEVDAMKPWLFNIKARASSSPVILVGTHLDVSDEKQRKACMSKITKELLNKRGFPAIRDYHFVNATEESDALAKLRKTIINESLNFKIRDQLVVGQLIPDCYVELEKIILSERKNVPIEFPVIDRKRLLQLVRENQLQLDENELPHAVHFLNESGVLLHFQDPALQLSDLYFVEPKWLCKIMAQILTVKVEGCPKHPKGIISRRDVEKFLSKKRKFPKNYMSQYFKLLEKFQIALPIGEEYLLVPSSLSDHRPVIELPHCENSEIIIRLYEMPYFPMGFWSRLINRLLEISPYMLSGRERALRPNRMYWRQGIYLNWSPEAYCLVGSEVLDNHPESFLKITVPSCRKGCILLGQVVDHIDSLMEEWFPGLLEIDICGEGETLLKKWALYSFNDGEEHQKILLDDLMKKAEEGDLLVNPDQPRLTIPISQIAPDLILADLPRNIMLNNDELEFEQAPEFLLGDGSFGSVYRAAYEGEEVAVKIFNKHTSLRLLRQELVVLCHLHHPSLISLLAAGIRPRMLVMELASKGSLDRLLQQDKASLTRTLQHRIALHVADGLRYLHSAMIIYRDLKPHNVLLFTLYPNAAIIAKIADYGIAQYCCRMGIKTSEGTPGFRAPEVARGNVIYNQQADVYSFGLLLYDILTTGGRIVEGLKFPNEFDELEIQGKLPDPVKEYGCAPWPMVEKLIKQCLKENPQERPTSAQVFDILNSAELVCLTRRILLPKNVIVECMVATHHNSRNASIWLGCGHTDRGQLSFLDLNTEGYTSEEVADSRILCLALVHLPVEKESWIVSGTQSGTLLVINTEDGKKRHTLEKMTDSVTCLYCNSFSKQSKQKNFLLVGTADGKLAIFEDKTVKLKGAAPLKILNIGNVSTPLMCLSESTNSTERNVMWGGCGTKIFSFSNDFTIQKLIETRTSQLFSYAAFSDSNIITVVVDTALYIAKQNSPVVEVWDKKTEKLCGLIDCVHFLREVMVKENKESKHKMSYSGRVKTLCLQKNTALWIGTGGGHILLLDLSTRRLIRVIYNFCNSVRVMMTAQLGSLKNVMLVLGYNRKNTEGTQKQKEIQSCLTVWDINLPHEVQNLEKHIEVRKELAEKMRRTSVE
assay.details: Recombinant cellular LRRK2 AlphaScreen assay (LRRK2 Ser935 phosphorylation)
Assay type: cell-based
test.parameters: SH-SY5Y cells with BacMam LRRK2, 60 minutes compound incubation, read-out: recombinant cellcular LRRK2 alphaScreen assay (pIC50) (converted)
endpoint.label: IC50

Please review the entries below; each comes with its answer.
CCOc1nc(Nc2ccc(C(=O)N3CCOCC3)cc2OC)nc2[nH]cc(C#N)c12 [Example E59]: ≤ 100 nM
CCOc1nc(Nc2ccc(C(=O)N3CCOC[C@H]3C)cc2OC)nc2[nH]ccc12 [Example E30]: ≤ 100 nM
CCOc1nc(Nc2ccc(C(=O)N3CCC4(CC3)CN(C)C4)cc2OC)nc2[nH]ccc12 [Example E13]: ≤ 100 nM
COc1cc(C(=O)N2CCN(C)CC2)ccc1Nc1nc(OCC2CC2)c2cc[nH]c2n1 [Example E33]: ≤ 100 nM
CCOc1nc(Nc2cc(F)c(C(=O)N3CCOCC3)cc2OC)nc2[nH]ccc12 [Example E2]: 200 nM

Q: Recorded IC50 of CCOc1nc(Nc2ccc(C(=O)N3CCN(C)C[C@H]3C)cc2OC)nc2[nH]ccc12 [Example E40] , please.
Ans: 50.1 nM

Q: Recorded IC50 of CCOc1nc(Nc2ccc(C(=O)N3CCOCC3)c(OC)c2)nc2[nH]ccc12 [Example E18] , please.
Ans: ≤ 100 nM

Q: Recorded IC50 of CCOc1nc(Nc2ccc(C(=O)N3CCN(C)CC3)cc2OC(C)C)nc2[nH]ccc12 [Example E24] , please.
Ans: 398 nM

Q: Recorded IC50 of CCOc1nc(Nc2ccc(C(=O)N3CCN(C)CC3)cc2OC)nc2[nH]ccc12 [Example E3] , please.
Ans: 158 nM

Q: Recorded IC50 of CCOc1nc(Nc2ccc(C(=O)N3CCOCC3)cc2OC)nc2[nH]ccc12 [Example E1] , please.
Ans: 158 nM

Q: Recorded IC50 of CCOc1nc(Nc2ccc(C(=O)N3CCOCC3)cc2)nc2[nH]ccc12 [Example E9] , please.
Ans: ≤ 100 nM

Q: Recorded IC50 of CCOc1nc(Nc2ccc(C(=O)N3CCN(C)CC3)cc2)nc2[nH]ccc12 [Example E15] , please.
Ans: ≤ 100 nM

Q: Recorded IC50 of COc1cc(C(=O)N2CCOCC2)ccc1Nc1nc(OCC2CC2)c2cc[nH]c2n1 [Example E34] , please.
Ans: ≤ 100 nM

Q: Recorded IC50 of CCOc1nc(Nc2ccc(C(=O)N3CCC(N4CCN(C)CC4)CC3)cc2OC)nc2[nH]ccc12 [Example E4] , please.
Ans: ≤ 100 nM

Q: Recorded IC50 of CCOc1nc(Nc2ccc(C(=O)N3CCN(C)CC3)cc2OC)nc2[nH]cc(C)c12 [Example E31] , please.
Ans: ≤ 100 nM

Q: Recorded IC50 of CCOc1nc(Nc2ccc(C(=O)N3CCOCC3)cc2OC)nc2[nH]cc(C)c12 [Example E32] , please.
Ans: ≤ 100 nM

Q: Recorded IC50 of CCOc1nc(Nc2ccc(C(=O)N3CCC4(CC3)CC4)cc2OC)nc2[nH]ccc12 [Example E16] , please.
Ans: 398 nM

Q: Recorded IC50 of CCOc1nc(Nc2ccc(C(=O)N3CCOC[C@@H]3C)cc2OC)nc2[nH]ccc12 [Example E27] , please.
Ans: ≤ 100 nM

Q: Recorded IC50 of CCOc1cc(C(=O)N2CCOCC2)ccc1Nc1nc(OCC)c2cc[nH]c2n1 [Example E20] , please.
Ans: 200 nM
